target: Carbonic anhydrase 7 (Homo sapiens)
Sequence (P43166 whole entry): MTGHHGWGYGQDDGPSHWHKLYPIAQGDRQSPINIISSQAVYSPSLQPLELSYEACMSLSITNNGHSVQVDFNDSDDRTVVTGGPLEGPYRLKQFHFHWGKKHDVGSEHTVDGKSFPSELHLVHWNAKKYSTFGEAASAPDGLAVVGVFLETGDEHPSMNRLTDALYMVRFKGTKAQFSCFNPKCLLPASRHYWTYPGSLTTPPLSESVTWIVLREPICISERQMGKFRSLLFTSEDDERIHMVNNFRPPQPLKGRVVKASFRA
assay_metric: pKi
When answering, recall that pKi equals minus log10 of the concentration in mol/L, and write that number alone.

(Q) State the recorded pKi for this entry: `Nc1c(F)cc(S(=O)(=O)Nc2nnc(S(N)(=O)=O)s2)cc1Cl`
(A) 8.54

----------
biological target: Carbonic anhydrase 14 (Homo sapiens); assay: Inhibition of human recombinant carbonic anhydrase 14 after 15 mins by stopped-flow CO2 hydration assay
Sequence (Q9ULX7 whole entry): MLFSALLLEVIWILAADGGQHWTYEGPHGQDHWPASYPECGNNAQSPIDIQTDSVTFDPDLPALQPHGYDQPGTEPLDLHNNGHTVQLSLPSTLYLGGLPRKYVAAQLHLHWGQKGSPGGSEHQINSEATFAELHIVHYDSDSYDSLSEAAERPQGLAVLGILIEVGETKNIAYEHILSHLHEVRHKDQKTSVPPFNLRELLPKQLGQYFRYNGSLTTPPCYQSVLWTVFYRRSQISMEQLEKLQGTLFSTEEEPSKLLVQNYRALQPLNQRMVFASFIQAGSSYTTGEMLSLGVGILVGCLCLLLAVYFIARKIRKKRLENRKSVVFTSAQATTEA
assay_metric: Ki (nM)
Write the answer as a number in nM, unit excluded.

(Q) Field request: Ki | item: `Cc1ccc(-c2cc(C(F)(F)F)nn2-c2ccc(S(N)(=O)=O)cc2)cc1`
(A) 689
